Target: human c-Met (Homo sapiens, UniProt P08581)
Construct: Recombinant GST-tagged cytosolic domains of human c-Met; 6xHis
Sequence (P08581 956-1390 limits assumed): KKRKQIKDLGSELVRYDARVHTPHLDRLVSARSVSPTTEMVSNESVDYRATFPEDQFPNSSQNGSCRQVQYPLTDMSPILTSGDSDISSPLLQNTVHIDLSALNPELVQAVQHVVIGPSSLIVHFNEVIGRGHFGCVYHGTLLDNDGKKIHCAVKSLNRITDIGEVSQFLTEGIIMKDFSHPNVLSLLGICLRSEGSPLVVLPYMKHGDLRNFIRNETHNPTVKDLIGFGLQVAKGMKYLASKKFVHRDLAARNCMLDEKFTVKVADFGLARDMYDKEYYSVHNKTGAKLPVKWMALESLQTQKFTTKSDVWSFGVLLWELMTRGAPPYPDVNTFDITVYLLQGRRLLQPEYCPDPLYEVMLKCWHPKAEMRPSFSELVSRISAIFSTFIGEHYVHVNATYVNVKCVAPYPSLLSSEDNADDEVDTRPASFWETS
Test: in vitro kinase assay (homogeneous time-resolved tyrosine kinase assay, METKA)
Conditions: recombinant GST-tagged c-Met cytosolic domain, HTRF, 50 μM MgATP; read-out: Biological Activity (METKA IC50) Activity Code
Property Name: IC50

# Compound, Endpoint Result
records = [
    ("Cn1cc(-n2ccc(=O)c(COc3ccc(N)cc3)n2)cn1", "0.1 to 1 µM"),
    ("O=c1ccn(-c2cc(F)c(F)c(F)c2)nc1COc1ccc2ncccc2c1", "< 0.1 µM"),
    ("O=c1ccn(-c2cc(F)cc(F)c2)nc1COc1ccc2ncccc2c1", "< 0.1 µM"),
    ("CCn1cc(-n2ccc(=O)c(OC(C)c3ccc4nccc(OC)c4c3)n2)cn1 (single isomer, unassigned) [Example 146]", "< 0.1 µM"),
    ("Cn1cc(-n2ccc(=O)c(CNc3ccc4ncccc4c3)n2)cn1", "< 0.1 µM"),
    ("COCCOC(=O)Nc1ccc(CCc2nn(-c3cnn(C)c3)ccc2=O)cc1", "1 to 3 µM"),
    ("CCOc1ccnc2ccc(OCc3nn(-c4cnn(C)c4)ccc3=O)cc12", "< 0.1 µM"),
    ("CCn1cc(-n2ccc(=O)c(COc3ccc4ncc(-c5ccc(N6CCOCC6)nc5)cc4c3)n2)cn1", "< 0.1 µM"),
    ("COCCOc1cnc2ccc(SCc3nn(-c4cnn(C)c4)ccc3=O)cc2c1", "< 0.1 µM"),
    ("Cn1cc(-n2ccc(=O)c(COc3ccc4nc(C#N)sc4c3)n2)cn1", "1 to 3 µM"),
]

Note: attention shifts to another entry.
The compound listed as "Cn1cc(-n2ccc(=O)c(COc3ccc4ncc(-c5cnn(C6CCNCC6)c5)cc4c3)n2)cn1" shows IC50 equal to < 0.1 µM
